Cited source for all entries: patent US10561676B2

- assayExplanation: Stability in human liver microsomes (NADPH-dependent)
- Format: in vitro ADME
- setupConditions: pH 7.4, 37° C., NADPH-dependent, read-out: CLint, microsomal intrinsic clearance
reportedMetric: microsomal CLint (µL/min/mg)
Numbers only, in µL/min/mg.

Record O=C(Nc1ccc(F)cc1)c1cnc(SCc2cc(OC(F)(F)F)ccc2B(O)O)nc1 . Reported microsomal CLint: 2.1
